The measurements presented in this section are drawn from the supplement of paper PMC9170038.

I'd appreciate it if you could supply apparent KD of MS2 coat protein values for the items below.
# Tested on: MS2 coat protein
# Assay overview: apparent KD of MS2 coat protein, switch ON state; designed switch direction (-1 OFF switch, 1 ON switch): -1; higher = weaker reporter binding
# Assay conditions: FMN input: 0 or 200 uM; Eterna round: R93 (includes R88 designs)
Your answer should be a plain number; it is taken to be in nM.

// fetch MS2 coat protein apparent KD of MS2 coat protein for AGUAUGCGAGGAUAUACAUGAGGAUCACCCAUGUGAGAGAUAAGAGUGAGAAAGACAAGUAGAAGGCGCGUACA [JL Lego Mod 25]
78.4

Record lookup: for MS2 coat protein, what apparent KD of MS2 coat protein belongs to AAAAAACAUGAGGAUCACCCAUGUAAGGAUAUGCUAAAAAAAAAAAAAAAAAAAAAAUGCAGAAGGUACAAAAA [water's exclusion 1 again] ?
40.4

Observed apparent KD of MS2 coat protein on MS2 coat protein for AGUCUGAGAGGAUAUACAUGGGAAAAAAAAGUCAGAUCCCUACAUGAGGAUCACCCAUGUAGAAGGCUCUGACA [Ex2 Design 147: Sub-opt 11] , please.
22.2

What measured apparent KD of MS2 coat protein is associated with AACAGUACAGGAUAUACAUGAGGAUCACCCAUGUGAAAAUUAAGUGGGAAACCACAAAGUAGAAGGGUACUGAA [Mat - Exclusion 3 - Eli mod - D59] on MS2 coat protein?
22

Identify the measured apparent KD of MS2 coat protein of ACAGUUACAGGAUAUACAAGGGUAACUUCAAAUAAACCUCUACAUGAGGAUCACCCAUGUAGAAGGGUAACUGA [Ex2 Design 200 (maybe): Random 16] for MS2 coat protein.
22.8

# returns recorded apparent KD of MS2 coat protein (system: MS2 coat protein) for CCCAUGUCAGGAUAUCAGUAGUAAAAAAAAAAAAUUACUACUGAGAAGGGACAUGAGGAUCACCCAUGUUCCAA [EX4 318: Super Stable 18]
58.3
